- TARGET_ENTITY: HLA-A*0206 (human)
- TEST_SUMMARY: inhibition of 125I probe peptide binding to purified HLA, gel filtration
- CONDITION_NOTES: remark: other sources report otherwise
This section presents binders with their documented IC50 values.
MEASUREMENT_KIND: IC50

[
  {
    "BINDER": "KVTKFMLCV [Peptide 60.0220 (PSA.187.V9)]",
    "RESULT": "128 nM"
  },
  {
    "BINDER": "TLSVTWIGV [Peptide 60.0217 (PSA.5.V9)]",
    "RESULT": "712 nM"
  },
  {
    "BINDER": "VVFLTLSVTWV [Peptide 63.0185 (PSA.1.V11)]",
    "RESULT": "336 nM"
  },
  {
    "BINDER": "KLQCVDLHVV [Peptide 63.0058 (PSA.166.V10)]",
    "RESULT": "500 nM"
  },
  {
    "BINDER": "VVFLTLSVTWI [Peptide 1419.25 (PSA.1)]",
    "RESULT": "2850 nM"
  }
]
